Details: 293.15 K; 50000 kPa; Liquid; Vibrating tube method
RECORDED_ENDPOINT: mass density (kg/m3)

| STRUCTURE_AS_SMILES | VAL |
| --- | --- |
| CC(C)C(C)C | 704.07 |
| CCCC(C)C | 695.95 |
| CCC(C)CC | 705.44 |
| CCC(C)(C)C | 694.34 |

---

Conditions: 293.15 K; 100 kPa; Liquid; Vibrating tube method
RECORDED_ENDPOINT: mass density (kg/m3)

| COMPOUND | mass density / kg/m3 |
| --- | --- |
| CCCC(C)C [2-methylpentane] | 653.28 |
| CCC(C)CC [3-methylpentane] | 664.28 |
| CCC(C)(C)C [2,2-dimethylbutane] | 649.25 |
| CC(C)C(C)C [2,3-dimethylbutane] | 661.58 |

---

Conditions: 328.15 K; 7000 kPa; Liquid; Vibrating tube method
RECORDED_ENDPOINT: mass density (kg/m3)

| COMPOUND | mass density (kg/m3) |
| --- | --- |
| CC(C)C(C)C [2,3-dimethylbutane] | 638.3 |
| CCC(C)(C)C [2,2-dimethylbutane] | 626.02 |
| CCC(C)CC [3-methylpentane] | 640.84 |
| CCCC(C)C [2-methylpentane] | 629.87 |

---

Conditions: 308.15 K; 20000 kPa; Liquid; Vibrating tube method
RECORDED_ENDPOINT: mass density (kg/m3)

| STRUCTURE_AS_SMILES | mass density / kg/m3 |
| --- | --- |
| CC(C)C(C)C | 669.63 |
| CCCC(C)C | 661.38 |
| CCC(C)CC | 671.68 |
| CCC(C)(C)C | 658.58 |

---

Details: 323.15 K; 100 kPa; Liquid; Vibrating tube method
RECORDED_ENDPOINT: mass density (kg/m3)

| STRUCTURE_AS_SMILES | UNIT_LABEL | mass density |
| --- | --- | --- |
| CCC(C)CC | kg/m3 | 636.14 |
| CCCC(C)C | kg/m3 | 624.76 |
| CCC(C)(C)C | kg/m3 | 620.03 |
| CC(C)C(C)C | kg/m3 | 633.18 |

---

Conditions: 328.15 K; 50000 kPa; Liquid; Vibrating tube method
RECORDED_ENDPOINT: mass density (kg/m3)

| STRUCTURE_AS_SMILES | UNIT_LABEL | mass density |
| --- | --- | --- |
| CCC(C)CC | kg/m3 | 682.22 |
| CCC(C)(C)C | kg/m3 | 670.88 |
| CC(C)C(C)C | kg/m3 | 680.68 |
| CCCC(C)C | kg/m3 | 672.49 |

---

Details: 313.15 K; 20000 kPa; Liquid; Vibrating tube method
RECORDED_ENDPOINT: mass density (kg/m3)

| STRUCTURE_AS_SMILES | mass density / kg/m3 |
| --- | --- |
| CCC(C)(C)C | 654.67 |
| CCC(C)CC | 667.66 |
| CCCC(C)C | 657.45 |
| CC(C)C(C)C | 665.61 |

---

Conditions: 293.15 K; 7000 kPa; Liquid; Vibrating tube method
RECORDED_ENDPOINT: mass density (kg/m3)

| COMPOUND | mass density / kg/m3 |
| --- | --- |
| CCCC(C)C [2-methylpentane] | 660.81 |
| CCC(C)(C)C [2,2-dimethylbutane] | 657.45 |
| CC(C)C(C)C [2,3-dimethylbutane] | 669.15 |
| CCC(C)CC [3-methylpentane] | 671.54 |

---

Settings: 293.15 K; 30000 kPa; Liquid; Vibrating tube method
RECORDED_ENDPOINT: mass density (kg/m3)

| STRUCTURE_AS_SMILES | UNIT_LABEL | mass density |
| --- | --- | --- |
| CCC(C)CC | kg/m3 | 691.45 |
| CCCC(C)C | kg/m3 | 681.56 |
| CC(C)C(C)C | kg/m3 | 689.64 |
| CCC(C)(C)C | kg/m3 | 679.25 |

---

Conditions: 303.15 K; 30000 kPa; Liquid; Vibrating tube method
RECORDED_ENDPOINT: mass density (kg/m3)

| STRUCTURE_AS_SMILES | mass density [kg/m3] |
| --- | --- |
| CC(C)C(C)C | 682.15 |
| CCCC(C)C | 673.98 |
| CCC(C)CC | 683.96 |
| CCC(C)(C)C | 671.8 |

---

Conditions: 283.15 K; 100 kPa; Liquid; Vibrating tube method
RECORDED_ENDPOINT: mass density (kg/m3)

| COMPOUND | UNIT_LABEL | VAL |
| --- | --- | --- |
| CCCC(C)C [2-methylpentane] | kg/m3 | 662.38 |
| CC(C)C(C)C [2,3-dimethylbutane] | kg/m3 | 670.76 |
| CCC(C)CC [3-methylpentane] | kg/m3 | 673.34 |
| CCC(C)(C)C [2,2-dimethylbutane] | kg/m3 | 658.57 |

---

Settings: 323.15 K; 40000 kPa; Liquid; Vibrating tube method
RECORDED_ENDPOINT: mass density (kg/m3)

| COMPOUND | RECORDED_ENDPOINT | VAL |
| --- | --- | --- |
| CCC(C)CC [3-methylpentane] | mass density | 677.73 |
| CC(C)C(C)C [2,3-dimethylbutane] | mass density | 676.08 |
| CCC(C)(C)C [2,2-dimethylbutane] | mass density | 666.02 |
| CCCC(C)C [2-methylpentane] | mass density | 667.99 |

---

Conditions: 288.15 K; 60000 kPa; Liquid; Vibrating tube method
RECORDED_ENDPOINT: mass density (kg/m3)

| STRUCTURE_AS_SMILES | mass density / kg/m3 |
| --- | --- |
| CCCC(C)C | 705.61 |
| CC(C)C(C)C | 713.85 |
| CCC(C)(C)C | 704.32 |
| CCC(C)CC | 715.04 |

---

Details: 283.15 K; 40000 kPa; Liquid; Vibrating tube method
RECORDED_ENDPOINT: mass density (kg/m3)

| STRUCTURE_AS_SMILES | VAL |
| --- | --- |
| CCCC(C)C | 696.18 |
| CC(C)C(C)C | 704.27 |
| CCC(C)CC | 705.94 |
| CCC(C)(C)C | 694.31 |

---

Settings: 298.15 K; 7000 kPa; Liquid; Vibrating tube method
RECORDED_ENDPOINT: mass density (kg/m3)

| STRUCTURE_AS_SMILES | RECORDED_ENDPOINT | VAL |
| --- | --- | --- |
| CCCC(C)C | mass density | 656.61 |
| CC(C)C(C)C | mass density | 664.81 |
| CCC(C)CC | mass density | 667.22 |
| CCC(C)(C)C | mass density | 653.04 |
